# merged literature set: pIC50 with Aromatase (Homo sapiens)
# Sequence (P11511 whole entry): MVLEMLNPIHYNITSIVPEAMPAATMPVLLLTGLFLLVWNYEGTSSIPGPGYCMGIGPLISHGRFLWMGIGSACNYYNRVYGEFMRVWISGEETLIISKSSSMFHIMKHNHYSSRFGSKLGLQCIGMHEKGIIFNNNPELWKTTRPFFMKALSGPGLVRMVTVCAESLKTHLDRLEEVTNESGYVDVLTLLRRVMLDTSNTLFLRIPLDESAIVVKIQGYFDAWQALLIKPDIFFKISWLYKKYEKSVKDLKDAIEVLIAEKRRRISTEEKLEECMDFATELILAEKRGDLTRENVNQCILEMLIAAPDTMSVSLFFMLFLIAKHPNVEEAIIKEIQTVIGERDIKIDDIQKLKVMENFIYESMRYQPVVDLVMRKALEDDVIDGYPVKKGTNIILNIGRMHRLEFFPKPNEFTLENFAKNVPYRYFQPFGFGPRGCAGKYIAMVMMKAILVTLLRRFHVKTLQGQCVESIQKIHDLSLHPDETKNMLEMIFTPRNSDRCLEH
pIC50 here is simply -log10 of the concentration when that concentration is written in mol/L.

COc1cc(C2Oc3cc(C4Oc5cc(O)cc(O)c5C(=O)C4O)ccc3OC2CO)ccc1O (stereo not drawn)	5.31

## Task Please report the measured pIC50 for `c1cnc(N2CCN(c3nc(N4CCOCC4)nc(-n4ccnc4)n3)CC2)nc1`
## Result 7.48

## Task Please report the measured pIC50 for `CCCCN(c1ccccc1)c1nc(-n2ccnc2)nc(-n2ccnc2)n1`
## Result 7.80

## Task Please report the measured pIC50 for `c1cn(-c2nc(N3CCCCC3)nc(N3CCCCC3)n2)cn1`
## Result 6.51

## Task Please report the measured pIC50 for N#Cc1ccc(C(CC(O)c2ccc(F)cc2)n2cncn2)cc1 (stereo not drawn)
## Result 6.52

## Task Please report the measured pIC50 for `c1cn(-c2nc(N3CCCCC3)nc(-n3ccnc3)n2)cn1`
## Result 7.19

## Task Please report the measured pIC50 for OCCC1CCCCN1c1nc(N2CCOCC2)nc(-n2ccnc2)n1 (stereo not drawn)
## Result 7.36

## Task Please report the measured pIC50 for `C[C@]12CCCC=C1CC[C@@H]1[C@@H]2CC[C@]2(C)C(=O)OC[C@@H]12`
## Result 5.92

## Task Please report the measured pIC50 for `CN(c1ccccc1)c1nc(-n2ccnc2)nc(-n2ccnc2)n1`
## Result 7.54

## Task Please report the measured pIC50 for CC(C)(C)OC(=O)C1CCCN1c1nc(N2CCOCC2)nc(-n2ccnc2)n1 (stereo not drawn)
## Result 7.43

## Task Please report the measured pIC50 for `OC1CCN(c2nc(N3CCOCC3)nc(-n3ccnc3)n2)CC1`
## Result 7.28

## Task Please report the measured pIC50 for `O=C(CCc1cccnc1)C12CC3CC(CC(C3)C1)C2`
## Result 5.47

## Task Please report the measured pIC50 for `CN(c1ccc(Cl)cc1)c1nc(-n2ccnc2)nc(-n2ccnc2)n1`
## Result 8.07

## Task Please report the measured pIC50 for `c1ccc(C2CCN(c3nc(-n4ccnc4)nc(-n4ccnc4)n3)CC2)cc1`
## Result 7.21

## Task Please report the measured pIC50 for `Cc1ncn(-c2nc(N(C)C)nc(-n3ccnc3)n2)c1C`
## Result 6.70

## Task Please report the measured pIC50 for `CN(c1ccc([N+](=O)[O-])cc1)c1nc(-n2ccnc2)nc(-n2ccnc2)n1`
## Result 8.00

## Task Please report the measured pIC50 for `c1ccc(C2CCN(c3nc(N4CCSCC4)nc(-n4ccnc4)n3)CC2)cc1`
## Result 7.70

## Task Please report the measured pIC50 for `CN(C)c1nc(N2CCOCC2)nc(-n2ccnc2)n1`
## Result 8.00
